Target: human ACVR2A (human, UniProt P27037 20-135, limits assumed); note: test concentration or dose not given here
Sequence (P27037 20-135 limits assumed): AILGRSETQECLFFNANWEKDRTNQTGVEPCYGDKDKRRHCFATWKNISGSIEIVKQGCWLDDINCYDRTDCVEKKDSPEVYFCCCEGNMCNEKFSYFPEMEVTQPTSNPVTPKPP
Assay: ELISA
Item-by-item account of optical density
# unit: OD | format: bare number

For orientation, consider the following solved cases.
1. 375_C06 (antibody, V domains shown, VH/VL only) VH: EVQLLESGGGLVQPGGSLRLSCAASGFTFDDYGMHWVRQAPGKGLEWVASINYNSGYTSYADSVKGRFTISRDNSKNTLYLQMNSLRAEDTAVYYCARSANWHDTALDYWGQGTLVTVSS VL: DIQMTQSPSSLSASVGDRVTITCRASQSILTYVNWYQQKPGKAPKLVIYATTSRASGVPSRFSGSGSGTDFTLTISSLQPEDFATYYCQQSYDSPLTFGGGTKVEIK : 2.65
2. 369_B09 (antibody, V domains shown, VH/VL only) VH: EVQLLESGGGLVQPGGSLRLSCAASGFTFDSYGMHWVRQAPGKGLEWVASINYNGGYTSYADSVKGRFTISRDNSKNTLYLQMNSLRAEDTAVYYCARSATWHDTHLDYWGQGTLVTVSS VL: DIQMTQSPSSLSASVGDRVTITCRASQSILTYLNWYQQKPGKAPKLLIYAATSRASGVPSRFSGSGSGTDFTLTISSLQPEDFATYYCQQSYENPLTFGGGTKVEIK : 1.62

Any idea what its optical density is? The binder is 370_F08 (antibody, V domains shown, VH/VL only) VH: EVQLLESGGGLVQPGGSLRLSCAASGFTFDSYSMNWVRQAPGKGLEWVAGINYNGGYTSYADSVKGRFTISRDNSKNTLYLQMNSLRAEDTAVYYCARSATWHDTHLDYWGQGTLVTVSS VL: DIQMTQSPSSLSASVGDRVTITCRASQSIISYVNWYQQKPGKAPKLLIYAATSRHSGVPSRFSGSGSGTDFTLTISSLQPEDFATYYCQQSYNLPLTFGGGTKVEIK
2.34

This collection of values is drawn from patent US20210380703A1.
